Target: Voltage-gated potassium channel subunit beta-2 (Rattus norvegicus) (UniProt P62483)
Sequence (P62483 whole entry, looked up): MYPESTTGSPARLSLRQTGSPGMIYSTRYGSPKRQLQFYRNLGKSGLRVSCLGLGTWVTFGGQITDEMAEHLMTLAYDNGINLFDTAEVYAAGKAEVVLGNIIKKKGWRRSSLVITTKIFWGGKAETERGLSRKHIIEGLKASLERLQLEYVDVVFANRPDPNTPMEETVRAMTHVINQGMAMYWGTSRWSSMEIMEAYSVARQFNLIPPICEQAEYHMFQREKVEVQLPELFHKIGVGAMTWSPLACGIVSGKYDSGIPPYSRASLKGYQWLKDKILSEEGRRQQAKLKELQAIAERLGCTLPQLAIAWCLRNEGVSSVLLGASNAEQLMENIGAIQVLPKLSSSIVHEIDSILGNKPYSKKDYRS
Test: inhibitors of rat Kvbeta2 reductase activity – biochemical, NADPH fluorescence, primary screen (AID 622);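 further: slope of raw intensity against log time taken from 70 to 1610 s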
Settings: recombinant KvBeta, 4-cyanobenzaldehyde reduction, at 10 µM, stronger effect = higher value
QUANTITY KIND: fluorescence slope
Just the number, please, no unit attached.

Form entry - test system: Voltage-gated potassium channel subunit beta-2 (Rattus norvegicus) (UniProt P62483); read-out: fluorescence slope; compound: `c1cc2c(cc1Cn1cnnn1)OCO2`
-0.492

Form entry - test system: Voltage-gated potassium channel subunit beta-2 (Rattus norvegicus) (UniProt P62483); read-out: fluorescence slope; compound: `Cc1nn(C)c(C)c1NC(=O)CSc1nc(Cc2ccccc2)nc2c1cnn2-c1ccccc1`
-0.491

Form entry - test system: Voltage-gated potassium channel subunit beta-2 (Rattus norvegicus) (UniProt P62483); read-out: fluorescence slope; compound: `CCOCCCNC(=O)C1CCN(S(=O)(=O)N(CC(C)C)CC(C)C)CC1`
-0.503

Form entry - test system: Voltage-gated potassium channel subunit beta-2 (Rattus norvegicus) (UniProt P62483); read-out: fluorescence slope; compound: `CCOC(=O)Cn1nc(-c2ccc(Cl)cc2)cc1N`
-0.501

Form entry - test system: Voltage-gated potassium channel subunit beta-2 (Rattus norvegicus) (UniProt P62483); read-out: fluorescence slope; compound: `CCN(CC)CCOC(=O)c1ccc(NC(=O)COc2cc(=O)n(CC)c3ccccc23)cc1`
-0.514

Form entry - test system: Voltage-gated potassium channel subunit beta-2 (Rattus norvegicus) (UniProt P62483); read-out: fluorescence slope; compound: Cc1csc(NC(=O)C2CCCO2)n1 (stereo unspecified)
-0.494

Form entry - test system: Voltage-gated potassium channel subunit beta-2 (Rattus norvegicus) (UniProt P62483); read-out: fluorescence slope; compound: `Cc1nc2ccccc2c(=O)n1CC(=O)N1CCOCC1`
-0.503

Form entry - test system: Voltage-gated potassium channel subunit beta-2 (Rattus norvegicus) (UniProt P62483); read-out: fluorescence slope; compound: `S=c1[nH]nc(Cc2ccccc2)n1Cc1ccco1`
-0.499

Form entry - test system: Voltage-gated potassium channel subunit beta-2 (Rattus norvegicus) (UniProt P62483); read-out: fluorescence slope; compound: `COc1ccc(-c2cc(O)cc(O)c2)cc1`
-0.49

Form entry - test system: Voltage-gated potassium channel subunit beta-2 (Rattus norvegicus) (UniProt P62483); read-out: fluorescence slope; compound: `COCCCn1nnnc1SCC(=O)Nc1nc(C)c(C)s1`
-0.499

Form entry - test system: Voltage-gated potassium channel subunit beta-2 (Rattus norvegicus) (UniProt P62483); read-out: fluorescence slope; compound: CCOC(=O)N1CCC(N(C(=O)Nc2cccc(OC)c2)C(C)CC)CC1 (stereo unspecified)
-0.513

* * *

Target: Alpha-2C adrenergic receptor (Homo sapiens)
Assay: compounds altering alpha2C-coupled GIRK flux – cell-based, HEK293 alpha2C/GIRK1/2, thallium flux, primary screen (AID 624);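 further: slope of fluorescence ratio to pre-addition baseline per second over 15 to 24 s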
Conditions: thallium flux BTC fluorescence, at 10 µM, actives lie on both sides
Calls of active or inactive are those of the source.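 Rule for the calls: active = fluorescence slope after compound addition differing from the mean of all screened samples at 99.7% confidence, in either direction; inactive = the rest.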
QUANTITY KIND: slope

Form entry - test system: Alpha-2C adrenergic receptor (Homo sapiens); read-out: slope; compound: `O=c1oc2ccccc2cc1NCc1ccccc1O`
0.00653 (inactive)

Form entry - test system: Alpha-2C adrenergic receptor (Homo sapiens); read-out: slope; compound: `O=S(=O)(c1cccc(-c2nnco2)c1)N1CCCC1`
0.00457 (inactive)

Form entry - test system: Alpha-2C adrenergic receptor (Homo sapiens); read-out: slope; compound: `N=c1c(C(=O)NCc2ccc3c(c2)OCO3)cc2c(=O)n3ccccc3nc2n1Cc1cccnc1`
0.00617 (inactive)

Form entry - test system: Alpha-2C adrenergic receptor (Homo sapiens); read-out: slope; compound: COc1ccccc1NC(=O)C1=C(C)Nc2nnnn2C1c1ccccc1OC (configuration not stated)
0.00379 (inactive)

Form entry - test system: Alpha-2C adrenergic receptor (Homo sapiens); read-out: slope; compound: CCOC(=O)c1ccc2nc(C)c3c(c2c1)OC(C)C3 (configuration not stated)
0.00348 (inactive)

Form entry - test system: Alpha-2C adrenergic receptor (Homo sapiens); read-out: slope; compound: `O=C(CSc1nnc2ncccn12)N1CCCCCC1`
0.00529 (inactive)

Form entry - test system: Alpha-2C adrenergic receptor (Homo sapiens); read-out: slope; compound: `CCOC(=O)C1CCN(S(=O)(=O)c2cccc(-c3csc(C)n3)c2)CC1`
0.0037 (inactive)
